Test system: Protein deacetylase HDAC6 (Homo sapiens)
Sequence (Q9UBN7 whole entry): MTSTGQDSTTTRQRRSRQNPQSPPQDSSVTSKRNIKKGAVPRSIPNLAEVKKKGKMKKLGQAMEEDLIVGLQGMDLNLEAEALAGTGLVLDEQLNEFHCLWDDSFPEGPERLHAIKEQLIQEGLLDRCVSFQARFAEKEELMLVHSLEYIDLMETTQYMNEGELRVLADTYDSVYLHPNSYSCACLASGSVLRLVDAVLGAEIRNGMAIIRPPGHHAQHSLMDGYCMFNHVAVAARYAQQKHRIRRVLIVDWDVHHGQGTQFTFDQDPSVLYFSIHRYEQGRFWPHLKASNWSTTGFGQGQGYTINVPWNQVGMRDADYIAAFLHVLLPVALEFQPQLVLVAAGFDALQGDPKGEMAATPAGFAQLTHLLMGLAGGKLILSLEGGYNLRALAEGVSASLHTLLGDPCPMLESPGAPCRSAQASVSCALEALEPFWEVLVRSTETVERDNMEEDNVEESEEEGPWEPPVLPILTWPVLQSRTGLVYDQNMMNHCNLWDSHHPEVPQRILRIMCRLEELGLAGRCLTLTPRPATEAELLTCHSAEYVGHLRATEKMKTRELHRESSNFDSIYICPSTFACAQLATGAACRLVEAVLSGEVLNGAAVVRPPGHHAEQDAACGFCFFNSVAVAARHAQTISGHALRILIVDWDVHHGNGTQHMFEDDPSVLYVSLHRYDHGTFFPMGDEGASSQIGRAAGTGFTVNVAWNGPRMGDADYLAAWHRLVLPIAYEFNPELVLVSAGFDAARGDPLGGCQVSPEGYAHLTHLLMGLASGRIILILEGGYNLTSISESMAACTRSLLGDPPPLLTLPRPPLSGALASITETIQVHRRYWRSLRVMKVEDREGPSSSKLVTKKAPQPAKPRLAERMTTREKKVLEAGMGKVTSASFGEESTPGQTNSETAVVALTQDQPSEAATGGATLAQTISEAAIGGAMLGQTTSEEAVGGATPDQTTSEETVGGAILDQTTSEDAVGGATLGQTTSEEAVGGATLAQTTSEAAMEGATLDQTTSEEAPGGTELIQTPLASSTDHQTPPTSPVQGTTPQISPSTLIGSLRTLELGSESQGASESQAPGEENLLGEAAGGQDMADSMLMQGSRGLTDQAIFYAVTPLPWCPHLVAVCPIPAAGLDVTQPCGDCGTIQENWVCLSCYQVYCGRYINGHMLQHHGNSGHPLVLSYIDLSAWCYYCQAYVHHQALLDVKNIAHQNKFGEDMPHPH
Test: Inhibition of human recombinant HDAC6 using Boc-Lys(Ac)-AMC as substrate preincubated for 5 mins followed by substrate addition and measured after 90 mins by fluorescence based microplate reader analysis
Exercise: for every item that follows, state its recorded IC50.

Below are some molecules; for each one, tell me its IC50.
1. CN(C)c1ccc(CNC(=O)c2ccc(-c3noc(C(F)(F)F)n3)cc2)cc1
2. O=C(NCCc1c[nH]c2ccccc12)c1ccc(-c2noc(C(F)(F)F)n2)cc1
3. O=C(NOCc1coc(-c2ccccc2)n1)c1ccc(-c2noc(C(F)(F)F)n2)cc1
4. O=C(Nc1cnc2ccccc2c1)c1ccc(-c2noc(C(F)(F)F)n2)cc1

Solution:
["> 100 µM", "> 100 µM", "> 100 µM", "> 100 µM"]
